Listed next: entries and their corresponding inhibition at 10 µM.
# study_target: NA reuptake (Rattus norvegicus, UniProt Q63380)
# Construct: isolated from the hypothalamus of male rat brains; from tissue; host or cells: rat brain synaptosomes (P2 fraction), hypothalamus of male rats
# Sequence (Q63380 1-617): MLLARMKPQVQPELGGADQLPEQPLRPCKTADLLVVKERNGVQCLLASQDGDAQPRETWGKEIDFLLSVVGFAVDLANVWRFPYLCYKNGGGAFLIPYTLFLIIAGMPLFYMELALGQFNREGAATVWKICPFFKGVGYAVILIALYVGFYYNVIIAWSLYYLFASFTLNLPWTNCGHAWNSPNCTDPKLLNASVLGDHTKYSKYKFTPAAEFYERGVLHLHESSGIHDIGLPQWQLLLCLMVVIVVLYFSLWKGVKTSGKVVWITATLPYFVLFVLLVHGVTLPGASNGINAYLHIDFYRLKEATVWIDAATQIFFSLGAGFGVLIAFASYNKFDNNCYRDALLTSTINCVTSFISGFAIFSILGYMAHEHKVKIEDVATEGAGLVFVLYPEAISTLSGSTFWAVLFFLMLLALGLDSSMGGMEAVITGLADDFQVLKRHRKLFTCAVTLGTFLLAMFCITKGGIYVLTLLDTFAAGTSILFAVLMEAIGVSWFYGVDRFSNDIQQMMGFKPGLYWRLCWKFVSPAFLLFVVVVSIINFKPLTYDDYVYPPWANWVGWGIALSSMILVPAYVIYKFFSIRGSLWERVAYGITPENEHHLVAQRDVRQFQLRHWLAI
# assay_procedure: Inhibition of NA reuptake in rat brain synaptosomes (hypothalamus, P2 fraction)
# Assay type: biochemical
# condition_notes: 10 μmol./l
Give the value, in units of %, as a plain number.

Guide cases for inhibition at 10 µM, answers given:
CN(C)CC1CCCc2ccccc2C1(O)c1cccnc1 (centres unmarked) ... 39
COc1ccc2c(c1)CC(CN(C)C)=C2c1cccnc1 ... 31
CN(C)CC1=C(c2cccnc2)c2ccc(O)cc2C1 ... 59
COc1cccc2c1CCC(CN(C)C)C2(O)c1cccnc1 (centres unmarked) ... 49

Kindly consider the entry below.
For the molecule COc1ccc2c(c1)CC(CN(C)C)C2(O)c1cccnc1 (centres unmarked) , give its reported inhibition at 10 µM.
29
